Source listed as patent US5028715A.

Reported survival values follow for various compounds
- PROTOCOL: Acute toxicity in mice (Table I)
- Type: in vivo
- EXPERIMENTAL CONDITIONS: mouse, in vivo; 75 mg/kg ip, vehicle H2O; read-out: Survivors (%)
Number only, in %; omit the unit.

COc1ccc(C2SCCN2CCCN)cc1 (stereo not shown) : 100
COc1ccc(C2SCCN2CCCN)cc1OC (stereo not shown) : 0
NCCCN1CCSC1c1ccc2c(c1)OCO2 (stereo not shown) : 0

Query: // query survival value for entry NCCCN1CCSC1c1ccc([N+](=O)[O-])cc1 (stereo not shown)
Response: 100

* * *

- PROTOCOL: Acute toxicity in mice (Table I)
- Type: in vivo
- EXPERIMENTAL CONDITIONS: mouse, in vivo; 37.5 mg/kg ip, vehicle H2O; read-out: Deaths
QUANTITY: mortality (%)
Numbers only here, please. The scale is %.

Query: Give its mortality value. Item: COc1ccc(C2SCCN2CCCN)cc1OC (stereo not shown)
Response: 50

* * *

The compounds listed here are annotated with their Deaths.
- Tested on: test mice
- PROTOCOL: Acute toxicity in mice (Table I)
- Type: in vivo
- EXPERIMENTAL CONDITIONS: 75 mg/kg ip, vehicle H2O

Query: Which Deaths is listed for COc1ccc(C2SCCN2CCCN)cc1 (stereo not shown) ?
Response: 0/5

Query: Item: COc1ccc(C2SCCN2CCCN)cc1OC (stereo not shown)
Response: 5/5

Query: Also check NCCCN1CCSC1c1ccc2c(c1)OCO2 (stereo not shown)
Response: 5/5

Query: For NCCCN1CCSC1c1ccc([N+](=O)[O-])cc1 (stereo not shown) then?
Response: 0/5

* * *

- PROTOCOL: Acute toxicity in mice (Table I)
- Type: in vivo
- EXPERIMENTAL CONDITIONS: mouse, in vivo; mice, ip
QUANTITY: LD50 (mg/kg)
Answer with a number only, understood to be in mg/kg.

COc1ccc(C2SCCN2CCCN)cc1OC (centres unmarked) [C] : 50

Turning to the following molecule.
Query: LD50 for NCCCN1CCSC1c1ccc2c(c1)OCO2 (centres unmarked) [D] ?
Response: 50

* * *

- PROTOCOL: Acute toxicity in mice (Table I)
- Type: in vivo
- EXPERIMENTAL CONDITIONS: mouse, in vivo; 150 mg/kg ip, vehicle H2O; read-out: Survivors (%)
survival by entry:
Write the value in % as a bare number.

Record excerpt, results attached:
COc1ccc(C2SCCN2CCCN)cc1 (stereo not shown) : 20
NCCCN1CCSC1c1ccc2c(c1)OCO2 (stereo not shown) : 0
NCCCN1CCSC1c1ccc([N+](=O)[O-])cc1 (stereo not shown) : 100

Okay, now this compound:
Query: Consider the compound shown here: COc1ccc(C2SCCN2CCCN)cc1OC (stereo not shown) What is its recorded survival?
Response: 0

* * *

- Test system: test mice
- PROTOCOL: Acute toxicity in mice (Table I)
- Assay type: in vivo
- EXPERIMENTAL CONDITIONS: 300 mg/kg ip, vehicle H2O
Parameter Deaths: see the listing below.

Example entries begin here.
NCCCN1CCSC1c1ccc2c(c1)OCO2 (stereo not shown) : 5/5
COc1ccc(C2SCCN2CCCN)cc1 (stereo not shown) : 5/5
COc1ccc(C2SCCN2CCCN)cc1OC (stereo not shown) : 5/5

Proceed to the following item.
Query: State its Deaths on test mice: NCCCN1CCSC1c1ccc([N+](=O)[O-])cc1 (stereo not shown)
Response: 2/5

* * *

Listed here are molecules together with their documented survival.
- PROTOCOL: Acute toxicity in mice (Table I)
- Assay type: in vivo
- EXPERIMENTAL CONDITIONS: mouse, in vivo; 300 mg/kg ip, vehicle H2O; read-out: Survivors (%)
Express your answer in %, writing the number without its unit.

Solved cases (3 shown):
NCCCN1CCSC1c1ccc([N+](=O)[O-])cc1 (stereo not shown) : 60
COc1ccc(C2SCCN2CCCN)cc1OC (stereo not shown) : 0
NCCCN1CCSC1c1ccc2c(c1)OCO2 (stereo not shown) : 0

Query: Need survival of COc1ccc(C2SCCN2CCCN)cc1 (stereo not shown) , thanks.
Response: 0

* * *

A collection of molecules and their measured Deaths
- Tested on: test mice
- PROTOCOL: Acute toxicity in mice (Table I)
- Type: in vivo
- EXPERIMENTAL CONDITIONS: 150 mg/kg ip, vehicle H2O

COc1ccc(C2SCCN2CCCN)cc1OC (stereo not shown) : 5/5
COc1ccc(C2SCCN2CCCN)cc1 (stereo not shown) : 4/5
NCCCN1CCSC1c1ccc2c(c1)OCO2 (stereo not shown) : 5/5

Field: next molecule
Query: Dear colleague, I am looking for the recorded Deaths of the following molecule: NCCCN1CCSC1c1ccc([N+](=O)[O-])cc1 (stereo not shown)
Response: 0/5
